Each record here notes measured growth.
System: SK-OV-3 ovarian
Assay comment: NCI-60 one-dose screen, 48 h (100 = growth as untreated, 0 = no growth, -100 = all killed)
Assay context: 10 µM unless noted
The panel holds about 83,000 compounds, 20% with a hit somewhere; the sample as a whole holds those more often.

- Compound: "CCCCn1c(=O)c(/C=C/C(=O)/C=C/c2cc3ccccc3n(CCCC)c2=O)cc2ccccc21"
  growth [%]: 15.6
- Compound: "Nc1ccc(C2=NN(C(=O)c3cc(-c4ccc(Cl)cc4)nc4ccccc34)C(c3ccccc3)C2)cc1 (configuration not stated)"
  growth [%]: 24.6
- Compound: "Nc1cccc(C(=O)Nc2ccc3c(O)c(N=Nc4ccc(N=Nc5ccc(S(=O)(=O)O)cc5)cc4)c(S(=O)(=O)O)cc3c2)c1"
  growth [%]: 101
- Compound: "COc1cc(C)ccc1Oc1nc(Nc2ccc(N3CCOCC3)cc2)ncc1N=Cc1cc(C(F)(F)F)cc(C(F)(F)F)c1"
  growth [%]: 43.3
- Compound: "CCOC(=O)c1c(C)nc2c(c1N)/C(=C/c1cccs1)C(=O)N2Cc1ccccc1"
  growth [%]: 96.6
- Compound: "CCN(CC)CC#CCOC(=O)[C@]1(C)CCC[C@]2(C)[C@H]3C[C@H]4C(C(C)C)=C[C@]3(CC[C@H]21)[C@@H]1C(=O)CCC(=O)[C@@H]14"
  growth [%]: 77.8
- Compound: "Cc1cccc(C)c1NCc1nnc(-c2ccc(O)cc2)o1"
  growth [%]: 114
- Compound: "O=C1NN(c2ccccc2)C(c2ccc(Cl)cc2)N2CCC[C@H]12 (some centres not stated)"
  growth [%]: 107
- Compound: "CCOC(=O)/C(=C/c1c(-c2ccccc2)[nH]c2ccccc12)C(=O)c1ccc(Cl)cc1"
  growth [%]: 81.6
- Compound: "COc1ccc(Cl)c([N+](=O)[O-])c1"
  growth [%]: 98
- Compound: "COCCOCCOCc1n(Cc2ccc3ccccc3n2)c2ccccc2[n+]1Cc1ccc2ccccc2n1"
  growth [%]: 21.3
- Compound: "CC(C)NS(=O)(=O)c1cccc(-c2ccc3c(=O)n(CCCN)c4c(c3c2)C(=O)c2ccccc2-4)c1"
  growth [%]: 107
- Compound: "CCO/C=N/S(=O)(=O)c1cc2c(cc1Cl)NC=NS2(=O)=O"
  growth [%]: 104
- Compound: "COc1cc2c(Nc3ccc(NC(=O)Nc4ccc(Cl)c(C(F)(F)F)c4)c(Cl)c3)ncnc2cc1OCCCN1CCN(C)CC1"
  growth [%]: 20.4
- Compound: "N#CC1C(c2ccc(Cl)cc2)=Nc2c(c(-c3ccccc3)nn2-c2ccccc2)C12C(=O)Nc1ccc(Cl)cc12 (configuration not stated)"
  growth [%]: 68.6
- Compound: "COc1ccc(-n2cc(-c3ccc(Cl)c(Cl)c3)[nH]c2=O)cc1OC"
  growth [%]: 101
- Compound: "Cc1ccc(SC2c3ccc(C)cc3Oc3nc(N)c(C#N)c(N)c32)cc1 (configuration not stated)"
  growth [%]: 102
- Compound: "COc1ccc(-c2[nH]c3ccccc3c2C=C(C#N)C#N)cc1"
  growth [%]: 28.7
- Compound: "CCCCc1n(Cc2ccc3ccccc3c2)c2ccccc2[n+]1Cc1ccc2ccccc2c1"
  growth [%]: -65.5
- Compound: "FC(F)(F)c1ccc2c(Nc3cccc(C4CC(c5ccccc5)=NN4c4ccc(Cl)cc4)c3)ccnc2c1 (configuration not stated)"
  growth [%]: 80.9
- Compound: "O=C(Nc1ccc2ncnc(Nc3cccc(C(F)(F)F)c3)c2c1)c1cccs1"
  growth [%]: 83.7
- Compound: "COc1cc(C(=O)N2CCN(c3ccccc3OC)CC2)c(NC(=O)c2cnccn2)cc1OCc1ccccc1"
  growth [%]: 90.2
- Compound: "COc1ccc(C2CC(c3ccc(OC)cc3O)=NN2c2ccc(S(N)(=O)=O)cc2)cc1 (configuration not stated)"
  growth [%]: 69.2
- Compound: "COc1ccc2c(c1)C1(C(=O)N2)C(C#N)=C(c2ccccc2)Nc2c1c(-c1ccccc1)nn2-c1ccccc1 (configuration not stated)"
  growth [%]: 78.8
- Compound: "Cc1nccc2c3ccc(OCc4cn(-c5ccccc5)nn4)cc3n(CCCc3ccccc3)c12"
  growth [%]: 69.7
- Compound: "COc1ccc(-c2[nH]c3ccc(OC)cc3c2C=C(C#N)C#N)cc1"
  growth [%]: 41.7
- Compound: "CC(=O)c1cnc(-c2ccccc2)nc1CBr"
  growth [%]: 105

====

System: SK-OV-3 ovarian
Assay comment: NCI-60 one-dose screen, 48 h (100 = growth as untreated, 0 = no growth, -100 = all killed)
Assay context: 10 µM unless noted
Procedure: Growth inhibition of the SK-OV-3 human tumor cell line is measured as a screen for anti-cancer activity. Cells are grown in 96 well plates and exposed to the test compound for 48 hours. Compounds are tested at a single concentration, which is 10^-5 M for most compounds. The reported endpoint is percent growth (GI% or GIPRCNT), where numbers from 0 - 100% represent growth inhibition, and numbers from -100% - 0 represent cell death. For example, a value of 40 represents 60% growth inhibition. […]
The panel holds about 83,000 compounds, 20% with a hit somewhere; the sample as a whole holds those more often.
Each record here notes measured growth.

- Molecule: "COc1c(O)cc2oc3cc(O[C@@H]4OC(C)[C@@H](O)[C@H](O)C4O)c(CC=C(C)C)c(O)c3c(=O)c2c1CC=C(C)C (some centres undefined)"
  Measurement units: "%"
  growth: 113
- Molecule: "CCCCCCCCCCCCCC1=NCC[N+]1(CCO)Cc1ccccc1 (centres undefined)"
  Measurement units: "%"
  growth: 48.8
- Molecule: "O=C(Nc1nc(-c2ccccc2)cs1)c1cc(-c2ccc(Br)cc2)nc2ccccc12"
  Measurement units: "%"
  growth: 51.6
- Molecule: "CC(C)CSc1nc(Nc2ccccc2)c(C#N)c(-c2ccc(F)cc2)n1"
  Measurement units: "%"
  growth: 46.8

====

System: 786-0 renal
Assay comment: NCI-60 one-dose screen, 48 h
Assay context: 10 µM unless noted
This is part of a sample that, as a whole, favours compounds with a hit. Of some 83,000 tested, about 20% had one in any assay. Calls of active or inactive are those of the source. How the source made its calls: active means growth percent below 10; inactive means the rest.
Classes used: active, inactive

- Compound: "CCn1cc(C(=O)O)c(=O)c2cc(F)c(N3CCN(CC(=O)Nc4ccc(/C(C)=N/OC)cc4)CC3)cc21"
  Group: "inactive"
- Compound: "C=C(C)[C@@H]1CCC=C2CC[C@]3(C)[C@H](CC[C@@H]4[C@@]5(C)CCCNC(C)(C)[C@@H]5CC[C@]43C)[C@H]21"
  Group: "active"
- Compound: "O=C(CCl)N1CCCc2ccccc21"
  Group: "inactive"
- Compound: "CCCCN(CCCC)CC(CN(CC)CC)OC(=O)Nc1ccccc1 (configuration not stated)"
  Group: "inactive"
- Compound: "CC(=O)OC[C@]12CC[C@@H](c3cn(Cc4ccc(Cn5cc([C@@H]6CC[C@]7(COC(C)=O)CC[C@]8(C)[C@H](CC[C@@H]9[C@@]%10(C)CC[C@H](OC(C)=O)C(C)(C)[C@@H]%10CC[C@]98C)[C@@H]67)nn5)cc4)nn3)[C@@H]1[C@H]1CC[C@@H]3[C@@]4(C)CC[C@H](OC(C)=O)C(C)(C)[C@@H]4CC[C@@]3(C)[C@]1(C)CC2"
  Group: "inactive"
- Compound: "COc1ccc(/C=C/C(=O)c2ccc(NC(=O)CSc3nnc(-c4ccc(OC)c(OC)c4)n3-c3ccccc3)cc2)cc1"
  Group: "active"
- Compound: "Nc1ccc(C2=NN(C(=O)c3cc(-c4ccc(Cl)cc4)nc4ccccc34)C(c3ccc(Cl)cc3)C2)cc1 (configuration not stated)"
  Group: "inactive"
- Compound: "COc1ccc(Cc2nc(C#N)c(N3CCN(c4ccc(F)cc4)CC3)o2)cc1"
  Group: "inactive"
- Compound: "COc1cc(-c2cn(-c3ccc(Cl)c(Cl)c3)c(=O)[nH]2)cc(OC)c1OC"
  Group: "inactive"
- Compound: "CCCCC1=c2c([nH]c3ccc(OC)cc23)=NC2C=CC=NC12 (configuration not stated)"
  Group: "inactive"
- Compound: "CC(=O)Nc1c(C(=O)Nc2ccccc2)sc2nc3c(cc12)C(OC(C)=O)CCC3 (configuration not stated)"
  Group: "inactive"
- Compound: "CC(=O)[C@@H]1CC[C@]2(C(=O)O)CC[C@]3(C)[C@H](CC[C@@H]4[C@@]5(C)Cc6c([nH]c7ccccc67)C(C)(C)[C@@H]5CC[C@]43C)[C@@H]12"
  Group: "inactive"

====

Each record here notes measured growth.
Tested on: HOP-62 NSCLC
Assay comment: NCI-60 one-dose screen, 48 h (100 = growth as untreated, 0 = no growth, -100 = all killed)
Assay context: 10 µM unless noted
This is part of a sample that, as a whole, favours compounds with a hit. Of some 83,000 tested, about 20% had one in any assay.
Measured endpoint: growth (%)

- Sample smiles: "C=C1C(=O)O[C@H]2[C@H]1CC/C(C=Nc1c(N)cc(F)cc1Br)=C\\CC[C@@]1(C)O[C@@H]21"
  Measured endpoint: "growth"
  Measurement units: "%"
  Result: 89.2
- Sample smiles: "O=[N+]([O-])c1ccc(Oc2ccc(-c3ccccc3)cc2)cc1"
  Measured endpoint: "growth"
  Measurement units: "%"
  Result: 92.1
- Sample smiles: "CC(C)(C)c1nn(-c2ccccc2)c2c1COCN2Cc1ccc(Cl)cc1"
  Measured endpoint: "growth"
  Measurement units: "%"
  Result: 93
- Sample smiles: "Cc1ccc(-c2nc(C#N)c(S(=O)(=O)N(C)CCO)o2)cc1"
  Measured endpoint: "growth"
  Measurement units: "%"
  Result: 97.7
- Sample smiles: "N#Cc1ccc(Oc2ccc3ccc(=O)oc3c2)cc1"
  Measured endpoint: "growth"
  Measurement units: "%"
  Result: 102
- Sample smiles: "COc1ccc2nc(-c3ccc(OC)c(OC)c3)cc(-c3nnc(SCC(=O)Nc4ccc(C(C)=O)cc4)o3)c2c1"
  Measured endpoint: "growth"
  Measurement units: "%"
  Result: 107
- Sample smiles: "COC(=O)/C=C1\\SC(=Nc2ccc(F)cc2)N(CCc2c[nH]c3ccccc23)C1=O"
  Measured endpoint: "growth"
  Measurement units: "%"
  Result: 104
- Sample smiles: "NS(=O)(=O)c1ccc(N2Cc3cc(Cl)ccc3OC3=C2C(=O)N(CC2CCCCC2)C3=O)cc1"
  Measured endpoint: "growth"
  Measurement units: "%"
  Result: -60.9
- Sample smiles: "C=C(C)[C@@H]1CC[C@]2(C(=O)OCCOCCOCC[P+](c3ccccc3)(c3ccccc3)c3ccccc3)CC[C@]3(C)[C@H](CC[C@@H]4[C@@]5(C)CC[C@H](OC(=O)C(Cl)Cl)C(C)(C)[C@@H]5CC[C@]43C)[C@@H]12"
  Measured endpoint: "growth"
  Measurement units: "%"
  Result: 11
